- Tested on: Jurkat (FADD−/−) cells
- TEST_DETAILS: Inhibition of TNF-induced programmed Jurkat (FADD−/−) cell necrosis (Cell Titer-Glo)
- Format: cell-based, human
- TEST_PARAMETERS: Homo sapiens, Jurkat, 20 h, TNF 10 ng/mL, intracellular ATP level, read-out: Cellular IC50 (M) Jurkat (FADD−/−)
MEASURE_NAME: IC50 (M)
The figure you give is taken to be in M; do not add the unit.

- MOLECULE: "CN1C(=O)[C@@H](NC(=O)c2cc(Cc3ccccc3)on2)COc2cc3[nH]c(C(F)(F)F)nc3cc21 [RIP1-077]"
  VALUE_OBSERVED: "1.68e-08"
- MOLECULE: "Cc1nc2cc3c(cc2[nH]1)OC[C@H](NC(=O)c1nnn(Cc2ccccc2)n1)C(=O)N3C [RIP1-071]"
  VALUE_OBSERVED: "1.71e-08"

Then this molecule:
Entry CN1C(=O)[C@@H](NC(=O)c2cccc(Cc3ccccc3)c2)CSc2cc3c(ccn3C)cc21 [RIP1-011] ; IC50 = 3.24e-07

###

Entries annotated with measured IC50
- Test system: Jurkat (FADD−/−) cells
- TEST_DETAILS: Inhibition of TNF-induced programmed Jurkat (FADD−/−) cell necrosis (Cell Titer-Glo)
- Type: cell-based, human
- TEST_PARAMETERS: Homo sapiens, Jurkat, 20 h, TNF 10 ng/mL, intracellular ATP level, read-out: Cellular IC50 (M) Jurkat (FADD−/−)
Please respond with the number in M and leave the unit unwritten.

Looking up CN1C(=O)[C@@H](NC(=O)c2cc(Cc3ccccc3)on2)CSc2cc3c(ccn3C)cc21 [RIP1-009] , I found its IC50 recorded as 1.08e-09

Per the record, CN1C(=O)[C@@H](NC(=O)c2nnc(Cc3ccccc3)[nH]2)COc2ccc3ncccc3c21 [RIP1-097] has IC50 of 1.2e-09

Just so you know, measured IC50 for CN1C(=O)[C@@H](NC(=O)c2ncn(Cc3ccccc3)n2)COc2ccc3ncccc3c21 [RIP1-098] came out at 7.25e-10

According to the records, this compound CN1C(=O)[C@@H](NC(=O)c2cc(Oc3ccccc3)ccn2)COc2ccc3ncccc3c21 [RIP1-179] displays IC50 of 6.7e-10

GET /value?item= CN1C(=O)[C@@H](NC(=O)c2cc(Oc3cccc(F)c3)ccn2)COc2ccc3ncccc3c21 [RIP1-204] &field=IC50 returns 3.04e-09

Briefly, IC50 measured for CN1C(=O)[C@@H](NC(=O)c2n[nH]c(Cc3ccc(F)cc3)n2)COc2cc3ncoc3cc21 [RIP1-185] : 2.72e-09

###

Ki, human RIP1 (Homo sapiens), per-entry values.
Please respond with the number in nM and leave the unit unwritten.

// below: answered molecules
- STRUCTURE: "CN1C(=O)[C@@H](NC(=O)c2cn(Cc3ccccc3)cn2)COc2ccc3ncccc3c21"
  Ki, nM: 37.7
- STRUCTURE: "CN1C(=O)[C@@H](NC(=O)c2cn(Cc3ccccc3)cn2)COc2cc3[nH]nc(Cl)c3cc21"
  Ki, nM: 0.66

Item: "CN1C(=O)[C@@H](NC(=O)c2cc(Cc3ccccc3)on2)COc2cc3occc3cc21" | System: human RIP1 (Homo sapiens) | Ki: 25.6

Response field Ki (human RIP1 (Homo sapiens)) for item "CN1C(=O)[C@@H](NC(=O)c2noc(Cc3ccccc3)n2)COc2cc3nccnc3cc21" : 19.3

Data origin: patent US20210292340A1
